Recorded values, source ChEMBL document CHEMBL1137744.

Test system: Human immunodeficiency virus 1
measurement_notes: Antiviral activity against HIV1 3B infected in human MT4 cells assessed as inhibition of virus-induced cytopathogenicity by MTT assay
Format: functional, organism-based
assay_context: Human immunodeficiency virus 1, 3B
Flag rule - EC50 less than 50 nM flags 1 (yes); the remaining entries get 0 (no).

Task item: Problem: For the molecule "O=C1c2ccccc2C(=O)N1CCOC(=S)N(C(=O)c1ccc2ccccc2c1)c1ccc(Cl)cc1" , is EC50 under 50 nM?
Reply: 1 (yes)

Task item: Problem: For the molecule "O=C1c2ccccc2C(=O)N1CCOC(=S)N(C(=O)c1ccco1)c1cccc(Cl)c1Cl" , is EC50 under 50 nM?
Reply: 0 (no)

Task item: Problem: For the molecule "O=C1c2ccccc2C(=O)N1CCOC(=S)N(C(=O)c1cccs1)c1ccc(Cl)cc1" , is EC50 under 50 nM?
Reply: 1 (yes)

Task item: Problem: For the molecule "O=C1c2ccccc2C(=O)N1CCOC(=S)N(C(=O)c1ccc(Cl)c(Cl)c1)c1ccccc1" , is EC50 under 50 nM?
Reply: 0 (no)

Task item: Problem: For the molecule "Cc1ccc(N(C(=O)c2c(Cl)cccc2Cl)C(=S)OCCN2C(=O)c3ccccc3C2=O)cc1" , is EC50 under 50 nM?
Reply: 0 (no)

Task item: Problem: For the molecule "Cc1ccc(N(C(=O)c2ccc([N+](=O)[O-])cc2)C(=S)OCCN2C(=O)c3ccccc3C2=O)cc1" , is EC50 under 50 nM?
Reply: 1 (yes)

Task item: Problem: For the molecule "O=C1c2ccccc2C(=O)N1CCOC(=S)N(C(=O)c1ccco1)c1ccc(Cl)cc1" , is EC50 under 50 nM?
Reply: 1 (yes)
